// provenance: PubChem BioAssay (NCATS)

# assayed.target: Thyrotropin-releasing hormone receptor (Homo sapiens) (UniProt P34981)
# Sequence (P34981 whole entry, looked up): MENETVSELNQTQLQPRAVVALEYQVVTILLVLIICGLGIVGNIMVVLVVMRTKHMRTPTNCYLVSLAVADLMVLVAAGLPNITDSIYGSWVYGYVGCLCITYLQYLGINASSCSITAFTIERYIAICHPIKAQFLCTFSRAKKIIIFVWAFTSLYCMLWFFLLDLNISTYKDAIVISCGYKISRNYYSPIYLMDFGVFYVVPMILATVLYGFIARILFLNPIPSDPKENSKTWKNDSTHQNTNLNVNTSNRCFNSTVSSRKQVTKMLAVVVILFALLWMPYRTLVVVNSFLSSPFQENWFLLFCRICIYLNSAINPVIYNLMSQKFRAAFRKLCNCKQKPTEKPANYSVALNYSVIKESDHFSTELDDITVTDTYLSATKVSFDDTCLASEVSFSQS
# experiment.description: qHTS for Small Molecule Agonists and Allosteric Enhancers of Human TRH Receptor: Validation Screen for Agonists (AID 493127);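 further: intracellular calcium rise by fluo-8 fluorescence before TRH EC20 addition; 0% is about no effect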
# condition.parameters: TRH receptor agonist cell assay; at 2 µM; hits give high values
activation values, listed per item
State just the number; it will be interpreted in %.

Use the examples below as a reference point.
                                   molecule  recorded_number
0    COc1cc(C(O)CN)ccc1O (stereo not drawn)            0.375
1                      CCCCc1ccc(C(=O)O)nc1             1.25
2   NC(N)=NOCCC(N)C(=O)O (stereo not drawn)            0.375
3  C=CCN1CC[C@]23CCCCC2[C@H]1Cc1ccc(O)cc13 (stereo partly drawn)                2
4  CN[C@@H]1C[C@@H](c2ccc(Cl)c(Cl)c2)c2ccccc21             29.8
5  Clc1ccc(C(c2ccc(Cl)cc2)n2cc[n+](CC(OCc3ccc(Cl)cc3Cl)c3ccc(Cl)cc3Cl)c2)cc1 (stereo not drawn)            -4.62
6  CS(=N)(=O)CC[C@H](N)C(=O)O (stereo partly drawn)            0.312
7         c1ccc2sc(C3(N4CCCCC4)CCCCC3)cc2c1            -13.1
8                     C[C@@H](N)Cc1cnc[nH]1             1.12
9              CCCN1CCC[C@H](c2cccc(O)c2)C1             2.19

Prompt: Request the reported activation associated with CN1C2CCC1CC(OC(=O)c1cc(Cl)cc(Cl)c1)C2 (stereo not drawn)
Completion: 3.5

Prompt: Look up activation for this molecule: COc1ccc2c(c[n+](C)c3c4cc5c(cc4ccc23)OCO5)c1OC
Completion: 0.625

Prompt: What measured activation goes with NC(=O)CN1CC(O)CC1=O (stereo not drawn) ?
Completion: 1.25

----------
# experiment.description: Quantitative High-Throughput drug screen in 47 multiple myeloma cell lines against the NCATS MIPE library collection: KMS26_JCRB cell viability assay (AID 1918975); further: nearly all actives have a fitted effect of over 45% in size; further: potency means the concentration at half of the fitted maximal effect
# condition.parameters: KMS26 myeloma cells viability, CellTiter-Glo ATP, 48 h; series mostly up to 45.8 µM
Inconclusive results are not listed. Activity calls are given as the source filed them. Calls follow the shape of the dose curve; as a rule, active = well fitted cell-killing curve with a large enough effect; inconclusive = small, poorly fitted or top-dose-only effect, or effect the other way; inactive = no such curve, though single readings can be large or run the other way.
readout.kind: Potency

compound	result
COc1cccc2c1[C@]13CCN(CC4CC4)[C@H](C2)[C@]1(OC)CCC(=O)C3	inactive
c1ccc2c(CN3CCNCC3)cccc2c1	inactive
CC(O)=C(C#N)C(=O)Nc1cc(Br)ccc1Br	18.7 µM (active)
CC[C@H]1C=CC=CC[C@@H](C)[C@H](O)[C@@](C)(O)C(=O)[C@@H](C)[C@H](O)[C@@H](C)C(=O)[C@@H](C)[C@H](O)[C@@H](C)C=CC(=O)O[C@@H]2[C@@H](C)[C@H](CC1)O[C@]1(CC[C@H](C)[C@H](C[C@@H](C)O)O1)[C@H]2C	10.5 µM (active)
CN1[C@H]2CC(O)C[C@H]1[C@H]1O[C@H]12 (stereo not given in full)	16.6 µM (active)
CC(=O)Nc1ccc(OC[C@](C)(O)C(=O)Nc2ccc([N+](=O)[O-])c(C(F)(F)F)c2)cc1	inactive
O=C1CCC[C@@H]2[C@H]3CCCN4CCC[C@@H](CN12)[C@@H]34	inactive
O=c1[nH]c2ccc(Cl)cc2c(N[C@@H]2CN3CCC2CC3)c1-c1nc2ccccc2[nH]1	2.64 µM (active)
C[C@]12COC(=O)C[C@@H]1CC[C@@H]1[C@H]2CC[C@@]2(C)[C@H]1CC[C@]2(C)O	inactive

Now take the following compound into account.
Prompt: I am curious: what Potency value has been reported for CN(C)NC(=O)CCC(=O)O ?
Completion: inactive

----------
# experiment.description: Quantitative High-Throughput drug screen in 47 multiple myeloma cell lines against the NCATS MIPE library collection: OCIMY1_PLB cell viability assay (AID 1918979); further: nearly all actives have a fitted effect of over 35% in size;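 on viability: 100% = DMSO-only wells and 0% = cell-free media-only wells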
# condition.parameters: OCI-MY1 myeloma viability, CellTiter-Glo ATP, 48 h; series mostly up to 45.8 µM
Results filed as inconclusive are left out. Active and inactive are the calls of the source. Calls come from the whole dose curve; as a rule, active = well fitted cell-killing curve with a large enough effect; inconclusive = small, poorly fitted or top-dose-only effect, or effect the other way; inactive = no such curve, though single readings can be large or run the other way.
Give one outcome, nothing more. List: T = active, F = inactive

In [3]: df
Out[3]:
                                   molecule  group
0  CN(C)[C@@H]1C(=O)C(C(N)=O)=C(O)[C@@]2(O)C(=O)C3=C(O)c4c(O)cccc4[C@@](C)(O)[C@H]3[C@H](O)[C@@H]12      F
1  CCNC(=O)CC1N=C(c2ccc(Cl)cc2)c2cc(OC)ccc2-n2c(C)nnc21 (centres undefined)      T
2  C[C@]12CC[C@H]3[C@@H](CCC4=CC(=O)CC[C@@]43C)[C@H]1CC[C@H]2OC(=O)CCC1CCCC1      F

Note: attention shifts to another entry.
Prompt: Entry CC(C)N(CCNC(=O)CN1CCCC1=O)C(C)C : call = ?
Completion: F

----------
# experiment.description: Quantitative High-Throughput drug screen in 47 multiple myeloma cell lines against the NCATS MIPE library collection: KMS20_JCRB cell viability assay (AID 1918973); further: nearly all actives have a fitted effect of over 45% in size; further: potency means the concentration at half of the fitted maximal effect
# condition.parameters: CellTiter-Glo ATP, 48 h; series mostly up to 45.8 µM
Inconclusive results are not listed. Active and inactive are the calls of the source. The call rests on the fitted dose curve; in most records, active means well fitted cell-killing curve with a large enough effect; inconclusive means small, poorly fitted or top-dose-only effect, or effect the other way; inactive means no such curve, though single readings can be large or run the other way.
readout.kind: Potency

Some compounds with recorded Potency:
compound	Potency
c1ccc(CCCN2CCN(CCOC(c3ccccc3)c3ccccc3)CC2)cc1	13200 nM (active)
CC=C(C)C(=O)N[C@@H](c1ccccc1)[C@@H](O)C(=O)O[C@H]1C[C@@]2(O)[C@@H](OC(=O)c3ccccc3)[C@@H]3[C@]4(OC(C)=O)CO[C@@H]4C[C@H](O)[C@@]3(C)C(=O)[C@H](OC(C)=O)C(=C1C)C2(C)C	inactive
N=c1c2c(-c3ccccc3)c(-c3ccccc3)n(Cc3ccccc3)c2ncn1C1CCC(O)CC1 (stereo not given)	2640 nM (active)
CCN(CC)C(=O)c1ccc(C2=CC3(CCNCC3)Oc3cccc(O)c32)cc1	inactive

Prompt: Look at this compound and give its reported Potency. CC(C)(O)C=CC(=O)[C@](C)(O)[C@H]1[C@H](O)C[C@]2(C)[C@@H]3CC=C4[C@@H](C=C(O)C(=O)C4(C)C)[C@]3(C)C(=O)C[C@@]12C
Completion: 18.7 nM (active)

Prompt: Name the recorded Potency for C=CCON=C(C[C@H]1O[C@@H]2O[C@]3(C)CC[C@@H]4[C@H](C)CC[C@@H]([C@H]1C)[C@@]24OO3)[C@H]1O[C@@H]2O[C@]3(C)CC[C@H]4[C@H](C)CC[C@@H]([C@@H]1C)[C@@]24OO3 .
Completion: 372 nM (active)

Prompt: Param item = C#C[C@]1(O)C=C[C@@H]2[C@@H]3CCC4=CC(=O)CC[C@@H]4[C@H]3CC[C@@]21CC ; retrieve measured Potency.
Completion: inactive

Prompt: Requested read-out: Potency. Entry: C[C@@]12OC(=O)[C@]1([C@@H](O)[C@@H]1C=CCCC1)NC(=O)[C@H]2CCCl
Completion: 29.6 nM (active)

Prompt: Return reported Potency; argument: O=[N+]([O-])c1ncc[nH]1
Completion: inactive

Prompt: GET /values?readout=Potency&item= CSCC[C@@H](NC(=O)[C@@H](Cc1ccccc1)NC(=O)CNC(=O)CNC(=O)[C@@H](N)Cc1ccc(O)cc1)C(=O)O
Completion: inactive

Prompt: Need Potency, item CC(C)[C@]12O[C@@H]1[C@@H]1O[C@]13[C@]1(O[C@H]1C[C@@H]1C4=C(CC[C@@]13C)C(=O)OC4)[C@H]2O
Completion: inactive

Prompt: Potency for COc1cc2cc(c1Cl)N(C)C(=O)C[C@H](OC(=O)C(C)C)[C@]1(C)O[C@H]1[C@H](C)[C@@H]1C[C@@](O)(NC(=O)O1)[C@H](OC)C=CC=C(C)C2 ?
Completion: inactive

Prompt: Tell me the measured Potency of O=c1[nH]c2ccccc2n1C1CCN(Cc2ccc(-c3[nH]c4cc5ncnc5cc4nc3-c3ccccc3)cc2)CC1 , please.
Completion: 2350 nM (active)

Prompt: If you can, please state the reported Potency value of CC1=C(O)C(=O)C=C2C1=CC=C1[C@@]2(C)CC[C@@]2(C)[C@@H]3C[C@](C)(C(=O)O)CC[C@]3(C)CC[C@]12C .
Completion: 935 nM (active)

Prompt: # lookup: Potency of NC1CC1c1ccccc1 (stereo not given)
Completion: inactive

----------
# experiment.description: Quantitative High-Throughput drug screen in 47 multiple myeloma cell lines against the NCATS MIPE library collection: MOLP8_DSMZ cell viability assay (AID 1918977); further: nearly all actives have a fitted effect of over 45% in size
# condition.parameters: MOLP8 myeloma viability, CellTiter-Glo ATP luminescence, 48 h; series mostly up to 45.8 µM
Inconclusive results are not listed. Active and inactive are the calls of the source. The call rests on the fitted dose curve; in most records, active means well fitted cell-killing curve with a large enough effect; inconclusive means small, poorly fitted or top-dose-only effect, or effect the other way; inactive means no such curve, though single readings can be large or run the other way.
Your answer must be one of the following: true for active, false for inactive

Consider the worked cases shown below.
molecule	group
COc1cc([C@@H]2c3cc4c(cc3[C@@H](O)C3COC(=O)C32)OCO4)cc(OC)c1O (stereo partly drawn)	true
C[C@@H]1CC[C@@]2(OC1)O[C@H]1C[C@H]3[C@@H]4CC=C5C[C@@H](O[C@@H]6O[C@H](CO)[C@@H](O[C@@H]7O[C@@H](C)[C@H](O)[C@@H](O)[C@@H]7O)[C@H](O)[C@@H]6O[C@@H]6O[C@@H](C)[C@H](O)[C@@H](O)[C@@H]6O)CC[C@]5(C)[C@@H]4CC[C@]3(C)[C@@H]1[C@H]2C	true
O=C(N[C@@H](COc1ccc2[nH]c(=O)[nH]c2c1)c1ccccc1)c1cccn(Cc2ccc(F)c(F)c2)c1=O	false
COCC1(CO)C(=O)C2CCN1CC2 (stereo not drawn)	true
C[C@]12CC[C@H]3[C@@H](CCC4=CC(=O)CC[C@@]43C)[C@H]1CC[C@H]2O	false

Prompt: Status in this test for CO[C@H]1CCC(O[C@H]2C[C@H]([C@]3(C)CC[C@]4(C[C@H](O)[C@@H](C)[C@@H]([C@@H](C)C=C(C)C(=O)[C@H](C)C[C@H](C)C(=O)O)O4)O3)O[C@]3(O[C@@H]([C@H]4O[C@@](O)(CO)[C@H](C)C[C@H]4C)C[C@H]3C)[C@H]2C)O[C@H]1C (stereo partly drawn) ?
Completion: true

Prompt: Recorded test outcome, item O=C(Oc1ccc([N+](=O)[O-])cc1)N1CCN(Cc2cccc(Oc3ccccc3)c2)CC1
Completion: false

Prompt: Lab log entry: c1cc2c(cc1[C@H]1OC[C@H]3[C@H]1CO[C@H]3c1ccc3c(c1)OCO3)OCO2 — outcome as called in the assay?
Completion: false

Prompt: Field: outcome | Entry: CC1=C(O)C(=O)C=C2C1=CC=C1[C@@]2(C)CC[C@@]2(C)[C@@H]3C[C@](C)(C(=O)O)CC[C@]3(C)CC[C@]12C
Completion: true

Prompt: I'd appreciate the recorded outcome for Cc1[nH]nc2ccc(-c3cncc(OC[C@@H](N)Cc4c[nH]c5ccccc45)c3)cc12 from this test.
Completion: true
